# Test system: BT-549
# method.summary: normalised response (% of control), CellTiter-Glo; higher = more viable cells (100 = DMSO, 0 = benzethonium chloride kill control)
# stated.conditions: incubation time: 72 h
reported.property: normalised response (%)
Please give a number only; it is taken to be in %.

Prompt: Look up normalised response of S=c1[nH]cnc2nc[nH]c12 [Mercaptopurine] (1000 nM) and report it.
Response: 103

Prompt: Determine from records and report normalised response for CN1CC[C@H](c2c(O)cc(O)c3c(=O)cc(-c4ccccc4Cl)oc23)[C@H](O)C1 [Alvocidib] (1000 nM)
Response: 5.76

Prompt: Fill in normalised response for record CN(C)C/C=C/C(=O)Nc1cc2c(Nc3ccc(F)c(Cl)c3)ncnc2cc1O[C@H]1CCOC1 [Afatinib] (1 nM)
Response: 96.9

---

# System: CAL-120
# method.summary: normalised viability (% of control), CellTiter-Blue; higher = more viable cells (about 100 = DMSO control)
# stated.conditions: 100 nM; incubation time: 72 h
Can you tell me normalised viability for the items I'm about to list?

Prompt: # return recorded normalised viability for entry Clc1ccc(C(c2ccccc2Cl)C(Cl)Cl)cc1 (stereo unspecified) [Mitotane]
Response: 86.3%

Prompt: For the molecule CN1CCC(COc2cnc(-c3cccc(Cn4nc(-c5cccc(C#N)c5)ccc4=O)c3)nc2)CC1 , give its reported normalised viability.
Response: 108%

Prompt: Determine its reported normalised viability: C=CCNC1=C2C[C@@H](C)C[C@H](OC)[C@H](O)[C@@H](C)/C=C(\C)[C@H](OC(N)=O)[C@@H](OC)/C=C\C=C(/C)C(=O)NC(=CC1=O)C2=O [Tanespimycin]
Response: 72.7%

Prompt: Give the value of normalised viability reported for the following: COc1cccc2cc(-c3nc([C@H]4CC[C@H](C(=O)O)CC4)n4ncnc(N)c34)[nH]c12 [OSI-027]
Response: 91.9%

Prompt: Please report the measured normalised viability for CN1CC[C@H](c2c(O)cc(O)c3c(=O)cc(-c4ccccc4Cl)oc23)[C@H](O)C1 [Alvocidib]
Response: 68.2%

Prompt: Please give the documented normalised viability of OC[C@H]1O[C@@H](n2cnc3c2N=CNC[C@H]3O)C[C@@H]1O [Pentostatin]
Response: 103%

---

# System: SK-BR-3
# method.summary: normalised viability (% of control), CellTiter-Blue; higher = more viable cells (about 100 = DMSO control)
# stated.conditions: 1 nM; incubation time: 72 h
reported.property: normalised viability
Answer format reminder: number followed by unit.

Prompt: Give the value of normalised viability reported for the following: Cc1ccc(F)c(NC(=O)Nc2ccc(-c3cccc4[nH]nc(N)c34)cc2)c1
Response: 117%

Prompt: Please supply the value of reported normalised viability for the item COc1cccc2c1C(=O)c1c(O)c3c(c(O)c1C2=O)C[C@@](O)(C(=O)CO)C[C@@H]3O[C@H]1C[C@H](N)[C@H](O)[C@H](C)O1
Response: 87.9%

Prompt: Fill in reported normalised viability for this entry: Nc1nc(Cl)nc2c1ncn2[C@H]1C[C@H](O)[C@@H](CO)O1
Response: 92.6%

Prompt: Supply recorded normalised viability for CO[C@H]1C[C@@H]2CC[C@@H](C)[C@@](O)(O2)C(=O)C(=O)N2CCCC[C@H]2C(=O)O[C@H]([C@H](C)C[C@@H]2CC[C@@H](OC(=O)C(C)(CO)CO)[C@H](OC)C2)CC(=O)[C@H](C)/C=C(\C)[C@@H](O)[C@@H](OC)C(=O)[C@H](C)C[C@H](C)/C=C/C=C/C=C/1C here.
Response: 76.1%

// data source = the supplement of paper PMC4862054
